# System: SUDHL10 cells
# Procedure Summary: Induction of caspase-3/7 activity in SUDHL10 cells (Assay 4)
# Format: cell-based
# Run Conditions: read-out: Caspase SUDHL10 EC50 (median); caspase-3/7 induction, 3 h
Parameter: EC50 (nM)
// return numeric value only (unit: nM, not printed)

Worked cases, answers included:
CCc1c2c(nn1C)C(CCN1CCN(C)CC1)OCCCCn1c(C(=O)O)c(CCCOc3cccc4cc(F)ccc34)c3ccc(Cl)c-2c31 (single isomer, unassigned; stereoisomer 2) [Example 70] : 14000
CCc1c2c(nn1C)C(CCOC)OCCCCn1c(C(=O)O)c(CCCOc3cccc4cc(F)ccc34)c3ccc(Cl)c-2c31 (single isomer, unassigned; enantiomer 2) [Example 43] : 24000
Cc1c2c(nn1C)C(C)OCCCCn1c(C(=O)O)c(CCCOc3cccc4ccccc34)c3cccc-2c31 (single isomer, unassigned; stereoisomer 1) [Example 2] : 2500
Cc1c2c(nn1C)C(CCN1CCOCC1)OCCCCn1c(C(=O)O)c(CCCOc3cccc4ccccc34)c3ccc(F)c-2c31 (single isomer, unassigned; enantiomer 1) [Example 8] : 150
CCc1c2c(nn1C)C(CCN1CCN(C)CC1)OCCCCn1c(C(=O)O)c(CCCOc3cccc4cc(F)ccc34)c3ccc(Cl)c-2c31 (single isomer, unassigned; stereoisomer 1) [Example 69] : 150

Lab note: CCc1c2c(nn1C)C(CCN1CCN(C)CC1)OCCCCn1c(C(=O)O)c(CCCOc3cccc4cc(F)ccc34)c3ccc(Cl)c-2c31 (racemic) [Example 68] gave EC50 of 82

For CCc1c2c(nn1C)C(CCN1CCN(C)CC1)OCCCCn1c(C(=O)O)c(CCCOc3cccc4cc(F)ccc34)c3ccc(Cl)c-2c31 (single isomer, unassigned; stereoisomer 3) [Example 72] the molecule record lists EC50 as 54

According to the records, this molecule CCc1c2c(nn1C)C(C1CC1)OCCCCn1c(C(=O)O)c(CCCOc3cccc4cc(F)ccc34)c3ccc(Cl)c-2c31 (single isomer, unassigned; enantiomer 1) [Example 39] displays EC50 of 1500

* * *

# Tested on: SUDHL5 cells
# Procedure Summary: Induction of caspase-3/7 activity in SUDHL5 cells (Assay 4)
# Assay type: cell-based
# Run Conditions: Homo sapiens, SU-DHL-5, 3 h, caspase-3/7 induction, 3 h; read-out: Caspase SUDHL5 EC50 (median)
# Description: Induction of Caspase-3/7 Activity Upon Treatment of Cells with Selected Compounds The BH3-domain of MCL-1 sequesters pro-apoptotic proteins, thereby inhibiting apoptosis. In contrast, MCL-1 inhibitors are expected to antagonize this effect leading to an increase in apoptosis, which can be determined by measuring the activity of caspase-3/7. […] Rim wells were excluded. […] Finally, luminescence was read at 0.1 ms, with a gain of 3000 using the PHERAstar FS microplate reader (BMG Labtech). […]
log10(EC50) values, listed per item
The figures below represent log10 of EC50, where EC50 is stated in µM.

The examples below pair each entry with its known result.
CCc1c2c(nn1C)C(CCCN1CCOCC1)OCCCCn1c(C(=O)O)c(CCCOc3cccc4cc(F)ccc34)c3ccc(Cl)c-2c31 (racemic) : -1.32
Cc1c2c(nn1C)C(CCN1CCOCC1)OCCCCn1c(C(=O)O)c(CCCOc3cccc4ccccc34)c3cccc-2c31 (racemic) : -0.28
Cc1c2c(nn1C)C(CCN1CCOCC1)OCCCCn1c(C(=O)O)c(CCCOc3cccc4ccccc34)c3ccc(Cl)c-2c31 (racemic) : -1.11
CCc1c2c(nn1C)C(Cc1ccccc1)OCCCCn1c(C(=O)O)c(CCCOc3cccc4cc(F)ccc34)c3ccc(Cl)c-2c31 (racemic) : -0.02
Cc1c2c(nn1C)C(CCN1CCOCC1)OCCCCn1c(C(=O)O)c(CCCOc3cccc4ccccc34)c3ccc(F)c-2c31 (racemic) : -0.70

Continue with the molecule presented below.
// assay SUDHL5 cells, entry CCc1c2c(nn1C)C1CCCN1CCCCn1c(C(=O)O)c(CCCOc3cccc4cc(F)ccc34)c3ccc(Cl)c-2c31 (racemic) , log10(EC50) value = -0.48
